# System: PXR:RXRa (NR concentration 270 nM, RXRa partner concentration 90 nM)
# METHOD NOTES: PBM binding z-score (relative to random genomic background probes); higher = stronger binding; sequences stand for … in GC…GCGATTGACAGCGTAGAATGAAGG
Entry flag: T if PBM binding z-score reaches 2; F if it does not.

> print(dat)
                        sequence.text                                    system  label.class
1  ATCGAGAGGTCGACGAGGTGAGTATACACCGTTT  PXR:RXRa (NR concentration 270 nM, RXRa partner concentration 90 nM)            T
2  GAAACAGGGTCAAGGCCAGAGTACGCGTATTGAT  PXR:RXRa (NR concentration 270 nM, RXRa partner concentration 90 nM)            T
3  ATCTCTAGGTAACCAAGTTCACTGAATGCCGAAC  PXR:RXRa (NR concentration 270 nM, RXRa partner concentration 90 nM)            T
4  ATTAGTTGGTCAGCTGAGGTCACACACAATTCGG  PXR:RXRa (NR concentration 270 nM, RXRa partner concentration 90 nM)            T
5  TCTTGTAGATCAAGTAGGTTAAGAAAGCCTGAGT  PXR:RXRa (NR concentration 270 nM, RXRa partner concentration 90 nM)            F
6  ATCTCTAGGCAAGACTCAGTTCAGTGAAGAACGC  PXR:RXRa (NR concentration 270 nM, RXRa partner concentration 90 nM)            F

// data source = the supplement of paper PMC6555819
